Cited source for all entries: patent US4795814A

Recorded IC50 values for a group of molecules are listed next.
# target entity: Calmodulin-dependent cyclic-AMP phosphodiesterase (EC 3.1.4.17) (Bos taurus, UniProt P14100)
# Construct: An enzyme substance isolated from the heart of bovine and purified partially; from tissue; host or cells: bovine heart
# Sequence (P14100 1-514 isoform P14100-2): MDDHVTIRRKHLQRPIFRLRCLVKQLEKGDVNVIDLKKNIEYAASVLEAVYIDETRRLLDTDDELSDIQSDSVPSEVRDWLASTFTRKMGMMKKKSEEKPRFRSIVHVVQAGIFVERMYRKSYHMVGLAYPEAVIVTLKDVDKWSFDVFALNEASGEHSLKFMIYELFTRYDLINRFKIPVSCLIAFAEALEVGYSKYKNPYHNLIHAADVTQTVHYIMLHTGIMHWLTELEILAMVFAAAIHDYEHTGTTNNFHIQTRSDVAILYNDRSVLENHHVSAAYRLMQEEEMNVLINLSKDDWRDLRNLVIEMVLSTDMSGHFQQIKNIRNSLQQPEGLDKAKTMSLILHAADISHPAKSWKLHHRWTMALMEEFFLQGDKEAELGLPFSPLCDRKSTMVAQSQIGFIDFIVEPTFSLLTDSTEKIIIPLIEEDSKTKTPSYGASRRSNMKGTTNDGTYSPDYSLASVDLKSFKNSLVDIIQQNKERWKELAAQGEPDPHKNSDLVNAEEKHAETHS
# test method notes: Pharmacological Test-2 (2): Cyclic-AMP phosphodiesterase inhibitory activity (EGTA in place of CaCl2)
# Assay type: biochemical, bovine
# test settings: 1 mM EGTA in place of CaCl2, 3 hours; read-out: Cyclic-AMP phosphodiesterase IC50 (converted)

Worked cases, answers included:
>>> endpoint_result("COC(=O)C1=C(C)NC(C)=C(C(=O)OC/C=C/c2ccc(O)c(Cl)c2)C1c1cccc([N+](=O)[O-])c1 (stereo not drawn)")
"> 200 µM"
>>> endpoint_result("COC(=O)C1=C(C)NC(C)=C(C(=O)OC/C=C/C=C/c2ccc(O)cc2)C1c1cccc([N+](=O)[O-])c1 (stereo not drawn)")
"> 204 µM"

Next molecule, IC50 to be filled in.
GET /values?readout=IC50&item= COC(=O)C1=C(C)NC(C)=C(C(=O)OC/C=C/c2ccc(O)cc2)C1c1ccccc1C(F)(F)F (stereo not drawn) > 205 µM
